# Test system: HT-29
# assay_procedure: cells
# conditions: Homo sapiens, HT-29, 72 h
pIC50: −log10 of the molar value.
observation_type: pIC50

>>> readout_value("CCCCOc1cc2nccc(Oc3ccc(N/C(CCOC)=N/S(=O)(=O)Cc4ccc(Cl)c(Cl)c4)cc3F)c2cc1OC")
5.39

A = CCCCC/C(=N\S(=O)(=O)Cc1ccc(F)cc1)Nc1ccc(Oc2ccnc3cc(OC)c(OC)cc23)c(F)c1
B = CCCCC/C(=N\S(=O)(=O)Cc1ccccc1)Nc1ccc(Oc2ccnc3cc(OC)c(OC)cc23)c(F)c1
C = CCCCC/C(=N\S(=O)(=O)Cc1ccccc1)Nc1ccc(Oc2ncnc3cc(OC)c(OC)cc23)c(F)c1
D = COCC/C(=N\S(=O)(=O)Cc1ccc(Cl)cc1)Nc1ccc(Oc2ccnc3cc(OCCCN4CCC(C)CC4)c(OC)cc23)c(F)c1
E = COCC/C(=N\S(=O)(=O)Cc1ccc(Cl)c(Cl)c1)Nc1ccc(Oc2ccnc3cc(OC)c(OC)cc23)c(F)c1
Arrange the 5 entries by pIC50 so the values rise. Answer format: list of labels, ordered as asked.
C, B, A, E, D

P = COc1cc2nccc(Oc3ccc(N/C(Cc4ccccc4)=N\S(=O)(=O)Cc4ccc(F)cc4)cc3F)c2cc1OC
Q = CCCCC/C(=N\S(=O)(=O)Cc1ccc(F)cc1)Nc1ccc(Oc2ccnc3ccsc23)c(F)c1
Parameter metric = pIC50. Return the lower-valued option from P and Q . Reply with the label of the item you choose.
P

###

# tested_system: ALK tyrosine kinase receptor (Homo sapiens)
# Sequence (Q9UM73 whole entry): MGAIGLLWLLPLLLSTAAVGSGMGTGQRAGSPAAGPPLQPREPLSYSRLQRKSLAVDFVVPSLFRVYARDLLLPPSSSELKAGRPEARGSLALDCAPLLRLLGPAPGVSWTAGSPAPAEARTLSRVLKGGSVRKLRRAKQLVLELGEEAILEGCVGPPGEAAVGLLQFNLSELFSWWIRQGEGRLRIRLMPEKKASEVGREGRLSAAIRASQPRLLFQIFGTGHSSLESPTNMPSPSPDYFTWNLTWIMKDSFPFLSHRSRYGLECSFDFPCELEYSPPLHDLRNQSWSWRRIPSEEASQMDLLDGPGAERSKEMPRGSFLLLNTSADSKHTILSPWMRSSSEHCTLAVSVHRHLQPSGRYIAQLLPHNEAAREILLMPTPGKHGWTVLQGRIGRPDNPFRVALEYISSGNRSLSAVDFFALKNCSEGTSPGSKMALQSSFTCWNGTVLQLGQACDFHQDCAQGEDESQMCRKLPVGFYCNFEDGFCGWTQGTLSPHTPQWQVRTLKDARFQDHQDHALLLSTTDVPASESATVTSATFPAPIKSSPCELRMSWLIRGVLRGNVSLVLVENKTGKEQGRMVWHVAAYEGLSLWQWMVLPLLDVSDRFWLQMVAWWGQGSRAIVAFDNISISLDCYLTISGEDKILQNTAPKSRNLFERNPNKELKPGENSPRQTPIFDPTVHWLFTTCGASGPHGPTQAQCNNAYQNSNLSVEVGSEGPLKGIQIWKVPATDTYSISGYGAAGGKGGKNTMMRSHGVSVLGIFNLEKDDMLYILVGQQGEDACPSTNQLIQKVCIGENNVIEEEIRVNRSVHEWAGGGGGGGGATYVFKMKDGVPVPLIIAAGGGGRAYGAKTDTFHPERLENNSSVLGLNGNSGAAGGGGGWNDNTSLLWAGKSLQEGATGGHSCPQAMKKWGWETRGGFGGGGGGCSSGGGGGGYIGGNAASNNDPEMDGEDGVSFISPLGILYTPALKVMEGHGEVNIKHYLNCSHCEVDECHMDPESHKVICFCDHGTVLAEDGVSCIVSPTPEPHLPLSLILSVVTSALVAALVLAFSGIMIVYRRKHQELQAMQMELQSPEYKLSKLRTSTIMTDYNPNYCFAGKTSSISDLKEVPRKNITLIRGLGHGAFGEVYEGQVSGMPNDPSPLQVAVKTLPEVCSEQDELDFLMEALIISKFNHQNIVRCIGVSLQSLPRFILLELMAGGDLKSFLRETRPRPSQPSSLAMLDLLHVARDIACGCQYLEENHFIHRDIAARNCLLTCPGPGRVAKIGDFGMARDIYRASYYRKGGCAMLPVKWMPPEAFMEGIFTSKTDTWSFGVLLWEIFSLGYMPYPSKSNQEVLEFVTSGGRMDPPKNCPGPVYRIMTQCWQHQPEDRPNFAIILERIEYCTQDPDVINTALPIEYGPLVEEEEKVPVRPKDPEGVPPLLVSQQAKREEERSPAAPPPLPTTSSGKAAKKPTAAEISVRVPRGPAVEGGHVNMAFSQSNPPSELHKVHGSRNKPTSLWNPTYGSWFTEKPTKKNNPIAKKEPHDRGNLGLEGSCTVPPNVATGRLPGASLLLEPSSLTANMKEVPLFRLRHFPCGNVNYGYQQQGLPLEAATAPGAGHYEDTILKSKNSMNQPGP
# assay_procedure: Inhibition of ALK (unknown origin) using poly (Glu, Tyr)4:1 as substrate in presence of ATP measured after 30 mins by HTRF assay
pIC50: −log10 of the molar value.
observation_type: pIC50

pIC50 for COCC/C(=N\S(=O)(=O)Cc1ccc(Cl)cc1)Nc1ccc(Oc2ccnc3cc(OCCCN4CCOCC4)c(OC)cc23)c(F)c1 ?
< 5.00

###

# Test system: FHC
# assay_procedure: Cytotoxicity against human FHC cells assessed as inhibtion of cell proliferation measured after 72 hrs by MTT assay
observation_type: pIC50
# reply with the number alone; pIC50 is -log10 of concentration in mol/L

pIC50 for COCC/C(=N\S(=O)(=O)Cc1ccc(Cl)cc1)Nc1ccc(Oc2ccnc3cc(OCCCN4CCOCC4)c(OC)cc23)c(F)c1 ?
5.21

###

# assay_procedure: Selectivity index, ratio of IC50 for human FHC cells assessed as inhibition of cell proliferation to IC50 of HT-29 cells assessed as inhibition of cell proliferation
# Type: toxicity
# conditions: FHC cells versus HT-29 cells, read-out: Selectivity Index
observation_type: selectivity ratio
# answer = number (no unit)

selectivity ratio for COCC/C(=N\S(=O)(=O)Cc1ccc(Cl)cc1)Nc1ccc(Oc2ccnc3cc(OCCCN4CCOCC4)c(OC)cc23)c(F)c1 ?
19.1

###

# assay_procedure: Oral bioavailability in Balb/c mouse at 8 mg/kg measured after 24 hrs by LC/MS/MS analysis
# Format: ADME, organism-based
# conditions: in vivo
observation_type: bioavailability (%)
Answer in %, number only, no unit symbol.

bioavailability for COCC/C(=N\S(=O)(=O)Cc1ccc(Cl)cc1)Nc1ccc(Oc2ccnc3cc(OCCCN4CCOCC4)c(OC)cc23)c(F)c1 ?
74

###

# Tested on: MDA-MB-231
# assay_procedure: Cytotoxicity against human MDA-MB-231 cells assessed as inhibition of cell proliferation measured after 72 hrs by MTT assay
# Format: functional, cell-based
# conditions: MDA-MB-231, 72 h
observation_type: pIC50
# reply with the number alone; pIC50 is -log10 of concentration in mol/L

pIC50 for COCC/C(=N\S(=O)(=O)Cc1ccc(C(F)(F)F)cc1)Nc1ccc(Oc2ccnc3cc(OC)c(OC)cc23)c(F)c1 ?
4.69

pIC50 for COCC/C(=N\S(=O)(=O)Cc1ccc(Cl)c(Cl)c1)Nc1ccc(Oc2ccnc3cc(OC)c(OC)cc23)c(F)c1 ?
5.48

pIC50 for COCC/C(=N\S(=O)(=O)Cc1ccc(Br)cc1)Nc1ccc(Oc2ccnc3cc(OC)c(OC)cc23)c(F)c1 ?
4.92

pIC50 for COCC/C(=N\S(=O)(=O)Cc1ccc(Cl)c(Cl)c1)Nc1ccc(Oc2ccnc3cc(OCCCN4CCCCC4)c(OC)cc23)c(F)c1 ?
6.03

pIC50 for CCCCOc1cc2nccc(Oc3ccc(N/C(CCOC)=N/S(=O)(=O)Cc4ccc(Cl)c(Cl)c4)cc3F)c2cc1OC ?
5.14

pIC50 for COCC/C(=N\S(=O)(=O)Cc1ccc(Cl)c(Cl)c1)Nc1ccc(Oc2ccnc3cc(OCCCN4CCN(C)CC4)c(OC)cc23)c(F)c1 ?
5.87

pIC50 for COCC/C(=N\S(=O)(=O)Cc1cccc(C)c1)Nc1ccc(Oc2ccnc3cc(OC)c(OC)cc23)c(F)c1 ?
4.88

###

# assay_procedure: Half life in Balb/c mouse at 2 mg/kg, iv measured after 24 hrs by LC/MS/MS analysis
# Format: ADME, organism-based
# conditions: in vivo
observation_type: half-life (h)
Answer in h, number only, no unit symbol.

half-life for COCC/C(=N\S(=O)(=O)Cc1ccc(Cl)cc1)Nc1ccc(Oc2ccnc3cc(OCCCN4CCOCC4)c(OC)cc23)c(F)c1 ?
1.8

###

# assay_procedure: Selectivity index, ratio of IC50 for human HUVEC cells assessed as inhibition of cell proliferation to IC50 of HT-29 cells assessed as inhibition of cell proliferation
# Format: toxicity
# conditions: HUVEC cells versus HT-29 cells, read-out: Selectivity Index
observation_type: selectivity ratio
# answer = number (no unit)

selectivity ratio for COCC/C(=N\S(=O)(=O)Cc1ccc(Cl)cc1)Nc1ccc(Oc2ccnc3cc(OCCCN4CCOCC4)c(OC)cc23)c(F)c1 ?
4.2

###

# tested_system: Mast/stem cell growth factor receptor Kit (Homo sapiens, UniProt P10721)
# Sequence (P10721 whole entry): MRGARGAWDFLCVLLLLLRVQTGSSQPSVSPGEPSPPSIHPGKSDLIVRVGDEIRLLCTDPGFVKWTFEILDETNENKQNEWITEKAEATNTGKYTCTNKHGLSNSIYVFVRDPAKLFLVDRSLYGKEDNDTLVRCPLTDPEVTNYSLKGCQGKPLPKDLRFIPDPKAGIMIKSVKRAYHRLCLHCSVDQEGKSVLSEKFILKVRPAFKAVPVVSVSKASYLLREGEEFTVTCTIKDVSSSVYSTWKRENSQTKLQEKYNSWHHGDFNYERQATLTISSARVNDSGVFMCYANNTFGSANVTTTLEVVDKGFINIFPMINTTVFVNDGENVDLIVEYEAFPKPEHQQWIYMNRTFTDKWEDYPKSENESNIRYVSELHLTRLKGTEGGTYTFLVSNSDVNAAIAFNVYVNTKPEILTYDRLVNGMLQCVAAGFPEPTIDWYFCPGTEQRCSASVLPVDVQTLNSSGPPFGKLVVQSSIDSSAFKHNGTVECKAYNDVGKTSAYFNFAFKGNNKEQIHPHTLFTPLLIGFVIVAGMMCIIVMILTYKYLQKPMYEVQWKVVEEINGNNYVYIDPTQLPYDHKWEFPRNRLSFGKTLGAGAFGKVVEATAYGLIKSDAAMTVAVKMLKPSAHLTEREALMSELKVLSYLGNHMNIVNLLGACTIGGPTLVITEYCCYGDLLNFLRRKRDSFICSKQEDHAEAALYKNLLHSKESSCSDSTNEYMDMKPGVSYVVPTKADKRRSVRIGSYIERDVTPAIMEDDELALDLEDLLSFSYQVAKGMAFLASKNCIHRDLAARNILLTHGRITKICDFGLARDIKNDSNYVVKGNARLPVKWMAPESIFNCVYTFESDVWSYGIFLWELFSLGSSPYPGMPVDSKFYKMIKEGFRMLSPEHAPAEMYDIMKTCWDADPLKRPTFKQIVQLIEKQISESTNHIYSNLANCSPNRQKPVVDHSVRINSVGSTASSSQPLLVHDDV
observation_type: pIC50
# reply with the number alone; pIC50 is -log10 of concentration in mol/L

pIC50 for COCC/C(=N\S(=O)(=O)Cc1ccc(Cl)cc1)Nc1ccc(Oc2ccnc3cc(OCCCN4CCOCC4)c(OC)cc23)c(F)c1 ?
8.37

###

# System: HT-29
# assay_procedure: cells
# conditions: Homo sapiens, HT-29, 72 h
observation_type: IC50 (µM)

>>> readout_value("COc1cc2nccc(Oc3ccc(N/C(Cc4cccnc4)=N\\S(=O)(=O)Cc4ccc(F)cc4)cc3F)c2cc1OC")
15.5
>>> readout_value("COCC/C(=N\\S(=O)(=O)Cc1ccc(C)cc1)Nc1ccc(Oc2ccnc3cc(OC)c(OC)cc23)c(F)c1")
8.74
>>> readout_value("COCC/C(=N\\S(=O)(=O)Cc1ccc(Cl)c(Cl)c1)Nc1ccc(Oc2ccnc3cc(OCCCN4CCN(C)CC4)c(OC)cc23)c(F)c1")
0.74
>>> readout_value("CCCCOc1cc2nccc(Oc3ccc(N/C(CCOC)=N/S(=O)(=O)Cc4ccc(Cl)cc4)cc3F)c2cc1OC")
2.85

P = COCC/C(=N\S(=O)(=O)Cc1ccccc1)Nc1ccc(Oc2ccnc3cc(OC)c(OC)cc23)c(F)c1
Q = COCC/C(=N\S(=O)(=O)Cc1ccc(Cl)cc1)Nc1ccc(Oc2ccnc3cc(OC)c(OC)cc23)c(F)c1
Response body: label of entry with the larger IC50; valid values P , Q . Reply with the label of the item you choose.
P

P = CCCCC/C(=N\S(=O)(=O)Cc1ccc(F)cc1)Nc1ccc(Oc2ncnc3ccsc23)c(F)c1
Q = CCCCC/C(=N\S(=O)(=O)Cc1ccc(F)cc1)Nc1ccc(Oc2ncnc3cc(OC)c(OC)cc23)c(F)c1
Response body: label of entry with the larger IC50; valid values P , Q . Reply with the label of the item you choose.
Q

A = COc1cc2nccc(Oc3ccc(N/C(CC4CCCCC4)=N\S(=O)(=O)Cc4ccccc4)cc3F)c2cc1OC
B = COCC/C(=N\S(=O)(=O)Cc1cccc(C)c1)Nc1ccc(Oc2ccnc3cc(OC)c(OC)cc23)c(F)c1
C = COCC/C(=N\S(=O)(=O)Cc1cccc(F)c1)Nc1ccc(Oc2ccnc3cc(OC)c(OC)cc23)c(F)c1
D = COCC/C(=N\S(=O)(=O)Cc1ccc(F)cc1)Nc1ccc(Oc2ccnc3cc(OC)c(OC)cc23)c(F)c1
E = COc1cc2nccc(Oc3ccc(N/C(C)=N/S(=O)(=O)Cc4ccc(F)cc4)cc3F)c2cc1OC
Arrange the 5 entries by IC50 so the values rise. Answer format: list of labels, ordered as asked.
D, C, E, B, A

###

# assay_procedure: Tmax in Balb/c mouse at 8 mg/kg, po measured after 24 hrs by LC/MS/MS analysis
# Assay type: ADME, organism-based
# conditions: in vivo
observation_type: Tmax (h)
Answer in h, number only, no unit symbol.

Tmax for COCC/C(=N\S(=O)(=O)Cc1ccc(Cl)cc1)Nc1ccc(Oc2ccnc3cc(OCCCN4CCOCC4)c(OC)cc23)c(F)c1 ?
2.5
